test.system: human plasma kallikrein (Homo sapiens (Human), UniProt P03952)
Sequence (P03952 391-638): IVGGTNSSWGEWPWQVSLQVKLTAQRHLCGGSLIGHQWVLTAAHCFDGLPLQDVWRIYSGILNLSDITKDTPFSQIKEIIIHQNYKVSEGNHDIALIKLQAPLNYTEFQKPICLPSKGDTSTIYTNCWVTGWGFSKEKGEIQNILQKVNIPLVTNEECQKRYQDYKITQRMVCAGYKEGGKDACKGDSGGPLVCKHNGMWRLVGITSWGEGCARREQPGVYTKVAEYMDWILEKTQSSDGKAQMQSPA
Sequence (P03952 20-390 partner): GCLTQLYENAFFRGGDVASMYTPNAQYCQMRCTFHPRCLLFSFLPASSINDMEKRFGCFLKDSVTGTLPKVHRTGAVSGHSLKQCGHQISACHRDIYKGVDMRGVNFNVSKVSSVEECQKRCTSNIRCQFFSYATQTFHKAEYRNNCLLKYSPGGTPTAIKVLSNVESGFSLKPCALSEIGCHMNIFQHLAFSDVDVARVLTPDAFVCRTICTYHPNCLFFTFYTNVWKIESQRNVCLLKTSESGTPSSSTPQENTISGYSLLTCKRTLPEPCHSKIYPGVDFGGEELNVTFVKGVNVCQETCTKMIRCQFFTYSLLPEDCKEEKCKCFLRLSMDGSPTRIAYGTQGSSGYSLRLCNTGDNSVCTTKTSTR
experimental.details: Determination of the plasma kallikrein activity (fluorogenic peptide substrate)
particulars: substrate H-Pro-Phe-Arg-AMC
observable: IC50 (nM)

>>> observed_result("COc1cn([C@@H](C)C(=O)Nc2ccc(C(N)=O)c(F)c2)c(=O)cc1-c1c(-n2cc(C(F)(F)F)nn2)ccc(Cl)c1F")
3.4
